experiment: Stability of the compound in pH 10.2 borate buffer assessed as compound mean nano particles size at 2 mg/ml by quasi-elastic light scattering method
Format: physicochemical
For each record, write down the corresponding Stability.
Numbers only, in nm.

Please go through the list and note Stability for each molecule.
1. CC(C)=CCC/C(C)=C/CC/C(C)=C/CC/C=C(\C)CC/C=C(\C)CCCOC(=O)CCCSSCCCC(=O)O[C@H]1[C@@H](C)CCC[C@H]2O[C@H]2C[C@@H](/C(C)=C/c2csc(C)n2)OC(=O)C[C@H](O)C(C)(C)C(=O)[C@@H]1C
2. CC(=O)O[C@H]1C(=O)[C@@]2(C)[C@H]([C@H](OC(=O)c3ccccc3)[C@]3(O)C[C@H](OC(=O)[C@H](OC(=O)CCCSSCCCC(=O)OCCC/C(C)=C/CC/C(C)=C/CC/C=C(\C)CC/C=C(\C)CCC=C(C)C)[C@@H](NC(=O)c4ccccc4)c4ccccc4)C(C)=C1C3(C)C)[C@]1(OC(C)=O)CO[C@@H]1C[C@@H]2O
3. CC[C@@]1(OC(=O)CCCCCCCCC(=O)OCCC/C(C)=C/CC/C(C)=C/CC/C=C(\C)CC/C=C(\C)CCC=C(C)C)C(=O)OCc2c1cc1n(c2=O)Cc2cc3ccccc3nc2-1
4. COc1cc([C@@H]2c3cc4c(cc3[C@H](OC(=O)CCCCCCCCC(=O)OCCC/C(C)=C/CC/C(C)=C/CC/C=C(\C)CC/C=C(\C)CCC=C(C)C)[C@H]3COC(=O)[C@H]23)OCO4)cc(OC)c1OC

1: 207.7; 2: 181.7; 3: 202.3; 4: 211.3

---

For each record, write down the corresponding remaining at 48 h, 2 mg/ml.
experiment: Stability in human serum at 37 degC assessed as ratio of HPLC area of peaks corresponding to intact compound at time zero at 2 mg/ml measured after 48 hrs
Format: ADME, cell-free
settings: read-out: Stability
Numbers only, in %.

- test.smiles: "CC(=O)O[C@H]1C(=O)[C@@]2(C)[C@H]([C@H](OC(=O)c3ccccc3)[C@]3(O)C[C@H](OC(=O)[C@H](OC(=O)CCCCCCCCC(=O)OCCC/C(C)=C/CC/C(C)=C/CC/C=C(\\C)CC/C=C(\\C)CCC=C(C)C)[C@@H](NC(=O)c4ccccc4)c4ccccc4)C(C)=C1C3(C)C)[C@]1(OC(C)=O)CO[C@@H]1C[C@@H]2O"
  readout: "remaining at 48 h, 2 mg/ml"
  number: 95
- test.smiles: "CC[C@@]1(OC(=O)CCCSSCCCC(=O)OCCC/C(C)=C/CC/C(C)=C/CC/C=C(\\C)CC/C=C(\\C)CCC=C(C)C)C(=O)OCc2c1cc1n(c2=O)Cc2cc3ccccc3nc2-1"
  readout: "remaining at 48 h, 2 mg/ml"
  number: 70
- test.smiles: "CC(=O)O[C@H]1C(=O)[C@@]2(C)[C@H]([C@H](OC(=O)c3ccccc3)[C@]3(O)C[C@H](OC(=O)[C@H](OC(=O)OCC/C(C)=C/CC/C(C)=C/CC/C=C(\\C)CC/C=C(\\C)CCC=C(C)C)[C@@H](NC(=O)c4ccccc4)c4ccccc4)C(C)=C1C3(C)C)[C@]1(OC(C)=O)CO[C@@H]1C[C@@H]2O"
  readout: "remaining at 48 h, 2 mg/ml"
  number: 94
- test.smiles: "CC(C)=CCC/C(C)=C/CC/C(C)=C/CC/C=C(\\C)CC/C=C(\\C)CCCOC(=O)CCCCCCCCC(=O)O[C@H]1[C@@H](C)CCC[C@H]2O[C@H]2C[C@@H](/C(C)=C/c2csc(C)n2)OC(=O)C[C@H](O)C(C)(C)C(=O)[C@@H]1C"
  readout: "remaining at 48 h, 2 mg/ml"
  number: 70

# evaluate next
Report remaining at 48 h, 2 mg/ml for `COc1cc([C@@H]2c3cc4c(cc3[C@H](OC(=O)CCCCCCCCC(=O)OCCC/C(C)=C/CC/C(C)=C/CC/C=C(\C)CC/C=C(\C)CCC=C(C)C)[C@H]3COC(=O)[C@H]23)OCO4)cc(OC)c1OC`
82

---

experiment: Stability of the compound in pH 10.2 carbonate buffer assessed as compound mean nano particles size at 2 mg/ml by quasi-elastic light scattering method
Format: physicochemical
For each record, write down the corresponding Stability.
One number for each entry, in nm.

- test.smiles: "CC[C@@]1(OC(=O)CCCCCCCCC(=O)OCCC/C(C)=C/CC/C(C)=C/CC/C=C(\\C)CC/C=C(\\C)CCC=C(C)C)C(=O)OCc2c1cc1n(c2=O)Cc2cc3ccccc3nc2-1"
  unit: "nm"
  Stability: 242.9
- test.smiles: "COc1cc([C@@H]2c3cc4c(cc3[C@H](OC(=O)CCCSSCCCC(=O)OCCC/C(C)=C/CC/C(C)=C/CC/C=C(\\C)CC/C=C(\\C)CCC=C(C)C)[C@H]3COC(=O)[C@H]23)OCO4)cc(OC)c1OC"
  unit: "nm"
  Stability: 242.9
- test.smiles: "CC(=O)O[C@H]1C(=O)[C@@]2(C)[C@H]([C@H](OC(=O)c3ccccc3)[C@]3(O)C[C@H](OC(=O)[C@H](OC(=O)CCCCCCCCC(=O)OCCC/C(C)=C/CC/C(C)=C/CC/C=C(\\C)CC/C=C(\\C)CCC=C(C)C)[C@@H](NC(=O)c4ccccc4)c4ccccc4)C(C)=C1C3(C)C)[C@]1(OC(C)=O)CO[C@@H]1C[C@@H]2O"
  unit: "nm"
  Stability: 635.9

Please go through the list and note Stability for each compound.
1. CC(C)=CCC/C(C)=C/CC/C(C)=C/CC/C=C(\C)CC/C=C(\C)CCCOC(=O)CCCSSCCCC(=O)O[C@H]1[C@@H](C)CCC[C@H]2O[C@H]2C[C@@H](/C(C)=C/c2csc(C)n2)OC(=O)C[C@H](O)C(C)(C)C(=O)[C@@H]1C
2. CC(=O)O[C@H]1C(=O)[C@@]2(C)[C@H]([C@H](OC(=O)c3ccccc3)[C@]3(O)C[C@H](OC(=O)[C@H](OC(=O)CCCSSCCCC(=O)OCCC/C(C)=C/CC/C(C)=C/CC/C=C(\C)CC/C=C(\C)CCC=C(C)C)[C@@H](NC(=O)c4ccccc4)c4ccccc4)C(C)=C1C3(C)C)[C@]1(OC(C)=O)CO[C@@H]1C[C@@H]2O

1. 212.2
2. 723.3

Please go through the list and note Stability for each compound.
1. CC[C@@]1(OC(=O)CCCSSCCCC(=O)OCCC/C(C)=C/CC/C(C)=C/CC/C=C(\C)CC/C=C(\C)CCC=C(C)C)C(=O)OCc2c1cc1n(c2=O)Cc2cc3ccccc3nc2-1
2. CC(C)=CCC/C(C)=C/CC/C(C)=C/CC/C=C(\C)CC/C=C(\C)CCCOC(=O)CCCCCCCCC(=O)O[C@H]1[C@@H](C)CCC[C@H]2O[C@H]2C[C@@H](/C(C)=C/c2csc(C)n2)OC(=O)C[C@H](O)C(C)(C)C(=O)[C@@H]1C
3. COc1cc([C@@H]2c3cc4c(cc3[C@H](OC(=O)CCCCCCCCC(=O)OCCC/C(C)=C/CC/C(C)=C/CC/C=C(\C)CC/C=C(\C)CCC=C(C)C)[C@H]3COC(=O)[C@H]23)OCO4)cc(OC)c1OC

1: 250.6; 2: 312.2; 3: 315

---

experiment: Stability of the compound in water assessed as compound mean nano particles size at 2 mg/ml by quasi-elastic light scattering method
Assay type: physicochemical
settings: buffer
For each record, write down the corresponding Stability.
Answers are plain numbers, in nm.

Solved cases (2 shown):
- test.smiles: "COc1cc([C@@H]2c3cc4c(cc3[C@H](OC(=O)CCCSSCCCC(=O)OCCC/C(C)=C/CC/C(C)=C/CC/C=C(\\C)CC/C=C(\\C)CCC=C(C)C)[C@H]3COC(=O)[C@H]23)OCO4)cc(OC)c1OC"
  number: 185.9
- test.smiles: "CC(=O)O[C@H]1C(=O)[C@@]2(C)[C@H]([C@H](OC(=O)c3ccccc3)[C@]3(O)C[C@H](OC(=O)[C@H](OC(=O)CCCCCCCCC(=O)OCCC/C(C)=C/CC/C(C)=C/CC/C=C(\\C)CC/C=C(\\C)CCC=C(C)C)[C@@H](NC(=O)c4ccccc4)c4ccccc4)C(C)=C1C3(C)C)[C@]1(OC(C)=O)CO[C@@H]1C[C@@H]2O"
  number: 107.9

Please go through the list and note Stability for each molecule.
1. CC[C@@]1(OC(=O)CCCCCCCCC(=O)OCCC/C(C)=C/CC/C(C)=C/CC/C=C(\C)CC/C=C(\C)CCC=C(C)C)C(=O)OCc2c1cc1n(c2=O)Cc2cc3ccccc3nc2-1
2. CC(C)=CCC/C(C)=C/CC/C(C)=C/CC/C=C(\C)CC/C=C(\C)CCCOC(=O)CCCSSCCCC(=O)O[C@H]1[C@@H](C)CCC[C@H]2O[C@H]2C[C@@H](/C(C)=C/c2csc(C)n2)OC(=O)C[C@H](O)C(C)(C)C(=O)[C@@H]1C
3. CC(C)=CCC/C(C)=C/CC/C(C)=C/CC/C=C(\C)CC/C=C(\C)CCCOC(=O)CCCCCCCCC(=O)O[C@H]1[C@@H](C)CCC[C@H]2O[C@H]2C[C@@H](/C(C)=C/c2csc(C)n2)OC(=O)C[C@H](O)C(C)(C)C(=O)[C@@H]1C
4. CC(=O)O[C@H]1C(=O)[C@@]2(C)[C@H]([C@H](OC(=O)c3ccccc3)[C@]3(O)C[C@H](OC(=O)[C@H](OC(=O)CCCSSCCCC(=O)OCCC/C(C)=C/CC/C(C)=C/CC/C=C(\C)CC/C=C(\C)CCC=C(C)C)[C@@H](NC(=O)c4ccccc4)c4ccccc4)C(C)=C1C3(C)C)[C@]1(OC(C)=O)CO[C@@H]1C[C@@H]2O

1: 160.2; 2: 165.1; 3: 125.3; 4: 100.8

Please go through the list and note Stability for each molecule.
1. CC[C@@]1(OC(=O)CCCSSCCCC(=O)OCCC/C(C)=C/CC/C(C)=C/CC/C=C(\C)CC/C=C(\C)CCC=C(C)C)C(=O)OCc2c1cc1n(c2=O)Cc2cc3ccccc3nc2-1
2. COc1cc([C@@H]2c3cc4c(cc3[C@H](OC(=O)CCCCCCCCC(=O)OCCC/C(C)=C/CC/C(C)=C/CC/C=C(\C)CC/C=C(\C)CCC=C(C)C)[C@H]3COC(=O)[C@H]23)OCO4)cc(OC)c1OC

195.3
180.5
